In this section, each of the sequences is paired with its reported PBM E-score.
- Tested Target: Hmlalpha2 (UniProt P0CY09)
- Sequence: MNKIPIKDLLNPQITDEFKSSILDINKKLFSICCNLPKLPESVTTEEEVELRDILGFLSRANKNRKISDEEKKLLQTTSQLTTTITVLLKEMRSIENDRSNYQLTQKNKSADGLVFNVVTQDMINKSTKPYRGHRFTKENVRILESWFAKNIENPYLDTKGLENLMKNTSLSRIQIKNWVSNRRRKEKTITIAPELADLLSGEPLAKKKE
- Assay Protocol: PBM E-score (8-mer binding enrichment) (E-score (-0.5 to 0.5)); higher = stronger / more preferred TF binding
- Condition Details: protein concentration: 200 nM; construct: GST-full length
In all, about 33,000 sequences were measured (“E-score (-0.5 to 0.5)”: median about -0.04, highest 2% from about 0.36 on). Shown is part of a subset that was picked to be rich in the highest values.

Below, 3 sequences whose answers are already recorded.
{"columns": ["Residue String", "Tested Target", "PBM E-score"],
 "data": [
  ["GCATGTCC", "Hmlalpha2 (UniProt P0CY09)", -0.0024],
  ["ACAGAAAT", "Hmlalpha2 (UniProt P0CY09)", 0.107],
  ["CTTTTGCA", "Hmlalpha2 (UniProt P0CY09)", 0.105]
]}

// lookup PBM E-score for AAGTGCTG
0.107

// lookup PBM E-score for ACATGTCT
0.305

// lookup PBM E-score for CGAAGAGC
-0.12

// lookup PBM E-score for CGCGTTAG
0.3

// lookup PBM E-score for TAAGGCCA
0.0046

// lookup PBM E-score for CCATGTAG
0.416

// lookup PBM E-score for CACGTTAG
0.113

// lookup PBM E-score for CCATGTCC
-0.00972

// lookup PBM E-score for ACGGTCCC
-0.356

// lookup PBM E-score for TCACAGCA
0.0289

// lookup PBM E-score for CGTGGCTC
-0.209

// lookup PBM E-score for TGCGTTAA
0.397

// lookup PBM E-score for GCATGTAC
0.408

// lookup PBM E-score for AGCGTTAA
0.0425

// lookup PBM E-score for TACGTTAA
0.325

// lookup PBM E-score for GCCTGTAC
0.101

// lookup PBM E-score for CACAGATC
-0.0314

// lookup PBM E-score for GGCGTTAA
0.216

---

- Tested Target: Hmlalpha2 (UniProt P0CY09)
- Sequence: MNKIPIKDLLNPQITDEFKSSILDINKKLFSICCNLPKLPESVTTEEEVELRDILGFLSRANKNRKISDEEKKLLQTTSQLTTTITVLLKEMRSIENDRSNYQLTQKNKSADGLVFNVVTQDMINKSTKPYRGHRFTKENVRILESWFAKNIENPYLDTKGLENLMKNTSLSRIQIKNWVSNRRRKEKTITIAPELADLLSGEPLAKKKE
- Assay Protocol: PBM E-score (8-mer binding enrichment) (E-score (-0.5 to 0.5)); higher = stronger / more preferred TF binding
- Condition Details: protein concentration: 200 nM; construct: GST-full length
The full ranking holds about 33,000 sequences; the median of “E-score (-0.5 to 0.5)” is about -0.04, and the highest 2% start at about 0.36. The sample holds the highest values, similar sequences and a random draw of the others, so the mix is not that of the screen.
PBM E-score vs 0.2: at or above is 1, below is 0.

Examples with answers:
{"columns": ["Residue String", "Classification"],
 "data": [
  ["CTGTGTAA", 1],
  ["ATGTGTAC", 1],
  ["AATTACGT", 1],
  ["GATGTTAC", 1],
  ["CTCTACGC", 0]
]}

Say whether CTCGTCAC shows PBM E-score of 0.2 or more.
0

Say whether CTGTGTGA shows PBM E-score of 0.2 or more.
1

Say whether ATTTACGC shows PBM E-score of 0.2 or more.
1
